Recorded values, source the supplement of paper PMC8728848.

# measured.on: GlcNAc(b1-3)[GlcNAc(b1-6)]Gal(b1-4)GlcNAc
# experiment.description: glycan array binding signal (z-score within array); higher = stronger binding
# details: glycan notation: IUPAC condensed, linker removed
The sample as a whole holds a higher share of the strongest signals than the screen did.
outcome.measure: glycan array binding signal (z-score)

INSERT INTO measurements (binder, outcome_measure, meas_value) VALUES
  ('SP16665A-bot-344-23-344 (Bacteroides ovatus) (protein) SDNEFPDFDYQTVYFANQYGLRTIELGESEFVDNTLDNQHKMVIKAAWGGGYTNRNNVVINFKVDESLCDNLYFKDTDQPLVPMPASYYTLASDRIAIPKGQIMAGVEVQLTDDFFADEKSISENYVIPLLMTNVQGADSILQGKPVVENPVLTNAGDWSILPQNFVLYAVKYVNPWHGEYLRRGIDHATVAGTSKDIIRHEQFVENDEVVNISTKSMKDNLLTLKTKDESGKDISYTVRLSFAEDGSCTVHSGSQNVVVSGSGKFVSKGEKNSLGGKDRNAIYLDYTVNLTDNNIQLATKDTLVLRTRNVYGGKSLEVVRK', 'glycan array binding signal (z-score)', -0.304),
  ('BDCA2 ex-domain (Homo sapiens) (protein) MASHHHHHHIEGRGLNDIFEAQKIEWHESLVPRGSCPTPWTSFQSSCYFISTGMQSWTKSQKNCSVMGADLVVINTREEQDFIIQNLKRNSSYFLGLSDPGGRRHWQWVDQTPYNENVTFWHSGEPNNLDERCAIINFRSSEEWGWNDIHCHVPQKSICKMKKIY', 'glycan array binding signal (z-score)', -0.208),
  ('UEA-I (Ulex europaeus), P22972 (protein) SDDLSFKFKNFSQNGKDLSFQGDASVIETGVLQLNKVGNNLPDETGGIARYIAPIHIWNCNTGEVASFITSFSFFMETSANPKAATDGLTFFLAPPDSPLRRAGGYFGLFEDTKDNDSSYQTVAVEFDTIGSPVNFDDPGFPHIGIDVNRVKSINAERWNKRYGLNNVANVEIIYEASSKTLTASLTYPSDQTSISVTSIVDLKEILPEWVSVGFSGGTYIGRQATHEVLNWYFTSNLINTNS', 'glycan array binding signal (z-score)', -0.266);
